This collection of values is drawn from patent US20070293477A1.

TARGET_DESC: TRPV4 channel receptor (Homo sapiens, UniProt Q9HBA0)
Construct: expressed in transfected cells; host or cells: HEK cells
Sequence (Q9HBA0 whole entry): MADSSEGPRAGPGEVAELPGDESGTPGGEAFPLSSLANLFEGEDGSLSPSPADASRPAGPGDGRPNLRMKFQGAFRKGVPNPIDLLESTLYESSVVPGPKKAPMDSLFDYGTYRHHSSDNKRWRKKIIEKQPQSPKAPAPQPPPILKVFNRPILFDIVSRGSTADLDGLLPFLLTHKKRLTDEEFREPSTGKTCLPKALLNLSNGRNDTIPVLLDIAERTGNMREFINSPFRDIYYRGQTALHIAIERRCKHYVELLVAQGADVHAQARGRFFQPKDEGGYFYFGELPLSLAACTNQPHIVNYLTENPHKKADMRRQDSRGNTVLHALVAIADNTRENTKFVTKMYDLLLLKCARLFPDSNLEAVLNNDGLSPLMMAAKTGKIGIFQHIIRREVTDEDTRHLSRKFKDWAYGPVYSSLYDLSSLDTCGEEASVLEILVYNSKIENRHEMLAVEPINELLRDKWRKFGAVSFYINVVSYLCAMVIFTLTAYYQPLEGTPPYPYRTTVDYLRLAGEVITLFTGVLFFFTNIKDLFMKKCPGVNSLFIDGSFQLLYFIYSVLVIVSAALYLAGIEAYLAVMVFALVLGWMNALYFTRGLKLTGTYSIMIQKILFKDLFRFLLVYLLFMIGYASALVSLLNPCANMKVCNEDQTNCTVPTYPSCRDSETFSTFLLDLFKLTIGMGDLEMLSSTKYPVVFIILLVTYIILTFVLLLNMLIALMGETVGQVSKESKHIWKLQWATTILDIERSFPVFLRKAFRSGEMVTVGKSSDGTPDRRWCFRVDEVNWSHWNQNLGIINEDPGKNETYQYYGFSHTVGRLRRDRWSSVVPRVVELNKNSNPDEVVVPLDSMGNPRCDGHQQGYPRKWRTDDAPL
ASSAY_COMMENT: FLIPR assay using TRPV4 expressing HEK cells
Assay type: cell-based
CONDITION_DESCRIPTION: FLIPR method; pEC50 = −log10(EC50 μM)
Measured EC50 by item

COMPOUND: CC(C)C[C@H](NC(=O)c1cc2ccccc2n1C)C(=O)NC1CCCN(S(=O)(=O)c2ccc(Cl)cc2)CC1 (mixture of isomers)
EC50: 10 to 31.6 µM
--
COMPOUND: CC(C)C[C@H](NC(=O)c1cc2ccccc2n1C)C(=O)N(C)C1CCCN(S(=O)(=O)c2ccccc2C#N)CC1 (stereo partly drawn)
EC50: 1 to 7.94 µM

(Q) Using the record for "CC(C)C[C@H](NC(=O)c1cc2ccccc2s1)C(=O)N[C@@H]1CCCN(S(=O)(=O)c2ccc(Cl)cc2Cl)CC1" , report its EC50.
(A) 0.1 to 0.794 µM
